Give pKi for every item shown.
Target: Bcl-w (UniProt Q92843 1-193)
Sequence (Q92843 whole entry): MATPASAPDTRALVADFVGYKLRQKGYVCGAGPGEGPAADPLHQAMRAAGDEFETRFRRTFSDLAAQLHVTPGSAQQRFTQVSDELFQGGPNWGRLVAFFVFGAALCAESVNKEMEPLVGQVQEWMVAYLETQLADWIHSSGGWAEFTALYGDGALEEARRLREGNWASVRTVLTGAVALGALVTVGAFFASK
Assay: fluorescence polarisation
Here pKi is given on a logarithmic scale as minus log10 of the concentration in mol/L.

Return reported pKi; argument: Ac-RPEIWIAQGLRRIGDTWNAYYAR-NH2 [FW1 (unlabeled, 23 residues)]
6.53

Return reported pKi; argument: H-RPEIWMAQVLRRFGDLLNAYYAR-OH [FD2]
6.98

Return reported pKi; argument: Ac-RPEIWLAQYLRRLGDQINAYYAR-NH2 [FD1]
7.92
